IC50 values by entry
Assay: Inhibition of replication of R5 HIV1 Ba-L in MOLT4/CCR5 cells
Kindly provide the numeric value in nM only, without the unit symbol.

In the examples that follow, each entry is paired with its recorded IC50.
> print(dat)
                                   compound  units.label  meas.value
1  CCCCOCCOc1ccc(-c2ccc3c(c2)C=C(C(=O)Nc2ccc([S+]([O-])Cc4cncn4CCC)cc2)CCN3CC(C)C)cc1 (centres undefined)           nM         5.3
2  CCCCOCCOc1ccc(-c2ccc3c(c2)C=C(C(=O)Nc2ccc([S+]([O-])Cc4cncn4CCC)cc2)CCCCN3CC(C)C)cc1 (centres undefined)           nM         2.1
3  CCCCOCCOc1ccc(-c2ccc3c(c2)C=C(C(=O)Nc2ccc([S+]([O-])Cc4cncn4CCC)cc2)CCCN3Cc2cnn(C)c2)cc1 (centres undefined)           nM         2.3

Consider the record given below.
Prompt: Recorded IC50 of CCCCOCCOc1ccc(-c2ccc3c(c2)C=C(C(=O)Nc2ccc([S+]([O-])Cc4cncn4CCC)cc2)CCCN3CCC)cc1 (centres undefined) , please.
Completion: 1.4
